assay target: T1, recombinant His-tagged human PD-1 (Acro Biosystems) (human, UniProt Q15116 25-167)
T1 construct: His-tagged; also called hPD-1
T1 sequence (Q15116 25-167 limits assumed): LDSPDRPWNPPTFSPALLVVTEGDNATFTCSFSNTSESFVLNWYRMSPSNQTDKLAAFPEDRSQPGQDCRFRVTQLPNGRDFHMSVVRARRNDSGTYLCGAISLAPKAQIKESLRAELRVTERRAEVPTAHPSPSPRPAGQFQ
experimental details: SPR Carterra LSA;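 note: antibodies or fusion proteins amine-coupled on an HC30M chip, soluble His-tagged human or cynomolgus PD-1 titrated over them, non-regenerative kinetics, constants fitted from titration curves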
property label: koff
Answer shape: numeric part, then the unit.

[in] Which koff reading was recorded for the binder OMC476pH10-hIgG4 (antibody, V domains shown) VH: DVQLVESGGGVVRPGGSLRLSCAASGFTFSIYAVSWVRQAPGEGLEWVSHISASGGSTYYADSVKGRFAISRDNSKNTLYLQMNSLRAEDTAVYYCTTNLGSDYWGLGTLVTVSS VL: QSVLTQPPSASGTPGQRVTISCSGSYSDIGTNYVYWYQQLPGTAPKLLIFATDRRPSGVPDRFSGSKSGTSASLAISGLQSEDEADYYCGTWDDSLNVWVFGGGTKLTVLG ?
[out] 0.0065 s⁻¹

[in] I have this binder here, OMC476pG10-hIgG4 (antibody, V domains shown) VH: DVQLVESGGGVVRPGGSLRLSCAASGFTFSIYAMSWVRQAPGEGLEWVSHISASGGSTYYADSVKGRFAISRDNSKNTLYLQMNSLRAEDTAVYYCTTNLGSDYWGLGTLVTVSS VL: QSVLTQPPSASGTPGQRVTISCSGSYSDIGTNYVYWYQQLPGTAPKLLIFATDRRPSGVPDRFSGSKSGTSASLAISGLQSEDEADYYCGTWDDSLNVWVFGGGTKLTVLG , and I need its recorded koff.
[out] 0.0041 s⁻¹
